Target: endogenous human Tdp1 in whole cell extract (Homo sapiens (Human), UniProt Q9NUW8)
Sequence (Q9NUW8 whole entry): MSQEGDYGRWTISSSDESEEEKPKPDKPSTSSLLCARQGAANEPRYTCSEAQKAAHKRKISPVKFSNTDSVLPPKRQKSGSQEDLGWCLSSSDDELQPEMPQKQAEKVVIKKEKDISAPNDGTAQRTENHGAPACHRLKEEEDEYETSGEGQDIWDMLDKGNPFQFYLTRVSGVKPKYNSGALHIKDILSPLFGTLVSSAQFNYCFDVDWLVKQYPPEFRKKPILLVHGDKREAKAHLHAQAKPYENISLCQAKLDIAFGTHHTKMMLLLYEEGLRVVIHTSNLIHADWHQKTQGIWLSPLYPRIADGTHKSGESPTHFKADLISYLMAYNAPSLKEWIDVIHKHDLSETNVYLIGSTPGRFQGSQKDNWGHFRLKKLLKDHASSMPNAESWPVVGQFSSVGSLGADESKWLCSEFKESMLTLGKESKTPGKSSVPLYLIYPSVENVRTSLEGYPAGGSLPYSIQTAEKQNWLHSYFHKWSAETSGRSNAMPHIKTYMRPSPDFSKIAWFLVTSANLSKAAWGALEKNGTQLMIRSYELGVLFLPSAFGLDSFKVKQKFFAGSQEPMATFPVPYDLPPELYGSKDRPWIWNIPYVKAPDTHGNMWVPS
Assay: Gel-based assay measuring the inhibition of endogenous human Tdp1 in whole cell extract
Conditions: human Tdp1 in whole cell extract (WCE)
assay-metric: pIC50
The value called pIC50 is obtained by taking minus log10 of the concentration in mol/L.

// lookup pIC50 for O=C1c2ccccc2-c2c1c1ccccc1c(=O)n2CCCNCCCNCCCn1c2c(c3ccccc3c1=O)C(=O)c1ccccc1-2
5.72

* * *

IC50 for assorted molecules
Target: Tdp1 (Homo sapiens (Human))
Sequence (Q9NUW8 whole entry): as above
Assay: Gel-based assay measuring the inhibition of recombinant Tdp1;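 note: 5′-32P-labeled single-stranded DNA with 3′-phosphotyrosine incubated with 5 pM enzyme for 15 min at room temperature, inhibition seen as loss of 3′-phosphate product band by densitometry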
Type: biochemical

Cl.NCCCn1c2c(c3ccc(NC(=O)CCCCC(=O)O)cc3c1=O)C(=O)c1ccccc1-2 [Compound 36 of (B), Hydrochloride] | > 111 µM

# query: IC50 | item Cl.NCCCn1c2c(c3ccc(NC(=O)CC(=O)O)cc3c1=O)C(=O)c1ccccc1-2 [Compound 33 of (B), Hydrochloride] | system: Tdp1 (Homo sapiens (Human))
> 111 µM

# query: IC50 | item NCCCn1c2c(c3ccccc3c1=O)C(=O)c1ccccc1-2 | system: Tdp1 (Homo sapiens (Human))
12 to 37 µM

# query: IC50 | item CC(C)(C)OC(=O)NCCCn1c2c(c3ccc(NCC(=O)O)cc3c1=O)C(=O)c1ccccc1-2 | system: Tdp1 (Homo sapiens (Human))
> 111 µM

# query: IC50 | item Cn1c2c(c3ccc(NC(=O)CC(=O)O)cc3c1=O)C(=O)c1ccccc1-2 | system: Tdp1 (Homo sapiens (Human))
> 111 µM

# query: IC50 | item COc1ccc2c(c1)-c1c(c3ccc([N+](=O)[O-])cc3c(=O)n1CCCN=[N+]=[N-])C2=O | system: Tdp1 (Homo sapiens (Human))
> 111 µM

# query: IC50 | item Cn1c2c(c3ccc(NCC(=O)O)cc3c1=O)C(=O)c1ccccc1-2 | system: Tdp1 (Homo sapiens (Human))
> 111 µM

The reported measurements were obtained from patent US8912213B2.
